# assayExplanation: Stability of analytes in rat plasma QC samples (autosampler, room temperature, freeze/thaw, -80°C)
# Assay type: in vitro ADME
# testSettings: n = 6, high level (1200 ng/mL isovanillin, periplocin; 240 ng/mL others)
Entries annotated with measured -80°C for 1 month stability, Accuracy
Just the number please, in %, no unit attached.

• CO[C@H]1C[C@H](O[C@H]2CC[C@]3(C)[C@H]4CC[C@]5(C)[C@@H](C6=CC(=O)OC6)CC[C@]5(O)[C@@H]4CC[C@]3(O)C2)O[C@H](C)[C@H]1O [periplocymarin] = 102
• C[C@]12CC[C@H](O)C[C@@]1(O)CC[C@@H]1[C@@H]2CC[C@]2(C)[C@@H](C3=CC(=O)OC3)CC[C@]12O [periplogenin] = 98.7
• COC1CC(OC2CCC3(C)C4CCC5(C)C(C6=CC(=O)OC6)CCC5(O)C4CCC3(O)C2)OC(C)C1OC1OC(CO)C(O)C(O)C1O (stereo not shown) [periplocin] = 92.9

Now consider the entry below.
Briefly, -80°C for 1 month stability, Accuracy measured for COc1ccc(C=O)cc1O [isovanillin] : 99.4
